experimentDescription: Noncompartmental plasma pharmacokinetics of AS and DHA after a single 200 mg oral dose of AS (LC-MS)
conditionLabel: female, human, plasma, po, 200 mg, DHA Tmax, 200 mg oral AS; post-partum (3 months); median [range]

compound	Tmax
C[C@H]1[C@@H](O)O[C@@H]2O[C@@]3(C)CC[C@H]4[C@H](C)CC[C@@H]1[C@@]24OO3 [DHA, dihydroartemisinin]	1.5 h

----------
experimentDescription: Noncompartmental plasma pharmacokinetics of AS and DHA after a single 200 mg oral dose of AS (LC-MS)
conditionLabel: female, human, plasma, po, 200 mg, DHA CL/F, 200 mg oral AS; ante-partum pregnant cases; median [range]

compound	CL/F (L/h/kg)
C[C@H]1[C@@H](O)O[C@@H]2O[C@@]3(C)CC[C@H]4[C@H](C)CC[C@@H]1[C@@]24OO3 [DHA, dihydroartemisinin]	1.39

----------
experimentDescription: Noncompartmental plasma pharmacokinetics of AS and DHA after a single 200 mg oral dose of AS (LC-MS)
conditionLabel: female, human, plasma, po, 200 mg, DHA FF (free fraction), 200 mg oral AS; non-pregnant controls; median [range]
parameterMeasured: fraction unbound

molecule	parameterMeasured	experimentalResult
C[C@H]1[C@@H](O)O[C@@H]2O[C@@]3(C)CC[C@H]4[C@H](C)CC[C@@H]1[C@@]24OO3 [DHA, dihydroartemisinin]	fraction unbound	0.18

----------
experimentDescription: Noncompartmental plasma pharmacokinetics of AS and DHA after a single 200 mg oral dose of AS (LC-MS)
conditionLabel: female, human, plasma, po, 200 mg, DHA AUCall, 200 mg oral AS; post-partum (3 months); median [range]
parameterMeasured: AUC (µg·h/mL)

compound	parameterMeasured	endpointUnit	experimentalResult
C[C@H]1[C@@H](O)O[C@@H]2O[C@@]3(C)CC[C@H]4[C@H](C)CC[C@@H]1[C@@]24OO3 [DHA, dihydroartemisinin]	AUC	µg·h/mL	2.12

----------
experimentDescription: Noncompartmental plasma pharmacokinetics of AS and DHA after a single 200 mg oral dose of AS (LC-MS)
conditionLabel: female, human, plasma, po, 200 mg, DHA Tmax, 200 mg oral AS; ante-partum pregnant cases; median [range]
parameterMeasured: Tmax (h)

molecule	experimentalResult
C[C@H]1[C@@H](O)O[C@@H]2O[C@@]3(C)CC[C@H]4[C@H](C)CC[C@@H]1[C@@]24OO3 [DHA, dihydroartemisinin]	1.5

----------
experimentDescription: Noncompartmental plasma pharmacokinetics of AS and DHA after a single 200 mg oral dose of AS (LC-MS)
conditionLabel: female, human, plasma, po, 200 mg, DHA Cmax, 200 mg oral AS; post-partum (3 months); median [range]
parameterMeasured: Cmax (ng/mL)

compound	endpointUnit	experimentalResult
C[C@H]1[C@@H](O)O[C@@H]2O[C@@]3(C)CC[C@H]4[C@H](C)CC[C@@H]1[C@@]24OO3 [DHA, dihydroartemisinin]	ng/mL	980

----------
experimentDescription: Noncompartmental plasma pharmacokinetics of AS and DHA after a single 200 mg oral dose of AS (LC-MS)
conditionLabel: female, human, plasma, po, 200 mg, DHA Tmax, 200 mg oral AS; non-pregnant controls; median [range]
parameterMeasured: Tmax (h)

molecule	endpointUnit	experimentalResult
C[C@H]1[C@@H](O)O[C@@H]2O[C@@]3(C)CC[C@H]4[C@H](C)CC[C@@H]1[C@@]24OO3 [DHA, dihydroartemisinin]	h	1.52

----------
experimentDescription: Noncompartmental plasma pharmacokinetics of AS and DHA after a single 200 mg oral dose of AS (LC-MS)
conditionLabel: female, human, plasma, po, 200 mg, DHA FF (free fraction), 200 mg oral AS; ante-partum pregnant cases; median [range]

molecule	fraction unbound
C[C@H]1[C@@H](O)O[C@@H]2O[C@@]3(C)CC[C@H]4[C@H](C)CC[C@@H]1[C@@]24OO3 [DHA, dihydroartemisinin]	0.21

----------
experimentDescription: Noncompartmental plasma pharmacokinetics of AS and DHA after a single 200 mg oral dose of AS (LC-MS)
conditionLabel: female, human, plasma, po, 200 mg, median DHA Cmax, 200 mg oral AS; non-pregnant control group
parameterMeasured: Cmax

molecule	experimentalResult
C[C@H]1[C@@H](O)O[C@@H]2O[C@@]3(C)CC[C@H]4[C@H](C)CC[C@@H]1[C@@]24OO3 [DHA, dihydroartemisinin]	1280 ng/mL

----------
experimentDescription: Noncompartmental plasma pharmacokinetics of AS and DHA after a single 200 mg oral dose of AS (LC-MS)
conditionLabel: female, human, plasma, po, 200 mg, DHA T½, 200 mg oral AS; ante-partum pregnant cases; median [range]

compound	half-life
C[C@H]1[C@@H](O)O[C@@H]2O[C@@]3(C)CC[C@H]4[C@H](C)CC[C@@H]1[C@@]24OO3 [DHA, dihydroartemisinin]	1.28 h

----------
experimentDescription: Noncompartmental plasma pharmacokinetics of AS and DHA after a single 200 mg oral dose of AS (LC-MS)
conditionLabel: female, human, plasma, po, 200 mg, median DHA Cmax, 200 mg oral AS; pregnant group
parameterMeasured: Cmax (ng/mL)

compound	parameterMeasured	experimentalResult
C[C@H]1[C@@H](O)O[C@@H]2O[C@@]3(C)CC[C@H]4[C@H](C)CC[C@@H]1[C@@]24OO3 [DHA, dihydroartemisinin]	Cmax	905

----------
experimentDescription: Noncompartmental plasma pharmacokinetics of AS and DHA after a single 200 mg oral dose of AS (LC-MS)
conditionLabel: female, human, plasma, po, 200 mg, DHA CL/F, 200 mg oral AS; non-pregnant controls; median [range]
parameterMeasured: CL/F (mL/min/kg)

compound	experimentalResult
C[C@H]1[C@@H](O)O[C@@H]2O[C@@]3(C)CC[C@H]4[C@H](C)CC[C@@H]1[C@@]24OO3 [DHA, dihydroartemisinin]	17.8

----------
experimentDescription: Noncompartmental plasma pharmacokinetics of AS and DHA after a single 200 mg oral dose of AS (LC-MS)
conditionLabel: female, human, plasma, po, 200 mg, DHA AUCall, 200 mg oral AS; ante-partum pregnant cases; median [range]

compound	AUC [ng·h/mL]
C[C@H]1[C@@H](O)O[C@@H]2O[C@@]3(C)CC[C@H]4[C@H](C)CC[C@@H]1[C@@]24OO3 [DHA, dihydroartemisinin]	1730
